Molecular target: recombinant BRD4 FL bromodomain (Homo sapiens)
Construct: fused on or other part: 6xHis tag, inferred from detection with Mab ANTI 6HIS-XL665
Test: BRD4 FL TR-FRET displacement assay
Assay type: binding
Conditions: BRD4 FL, compound at 10 μM; read-out: % Inhibition (10 μM)
Assign 1 (yes) to entries whose inhibition at 10 µM meets or exceeds 50%; assign 0 (no) to the rest.

Could you tell me if the measured inhibition at 10 µM of Cc1cc2c(N3CCN(C)c4cc(C5CCOC5)ncc43)cc(N3CCOCC3)cc2n(C)c1=O (stereo not shown) [Example 137] reaches 50% or more?
0 (no)

Field entry: Cc1cc2c(N3CCCc4ccc(C(F)F)cc43)nc(N3CCC(O)C3)cc2n(C)c1=O (stereo not shown) [Example 230]
0 (no)

How about this molecule: Cc1cc2c(N3CCN(C)c4cc(-c5cnn(C)c5)ncc43)cc(OCC(F)F)cc2n(C)c1=O [Example 130]
0 (no)

What would you report for CCC(=O)NS(=O)(=O)c1ccc2c(c1)N(c1cc(OC)cc3c1cc(C)c(=O)n3C)CCN2C [Example 106] ?
0 (no)

Next entry: COc1cc(N2CCN(C)c3ccc(S(=O)(=O)NC(C)=O)cc32)c2cc(C)c(=O)n(C)c2c1 [Example 98]
1 (yes)

Same for Cc1cc2c(N3CCN(C)c4cc(-c5cnn(C)c5)ncc43)cc(N3CCOC(C)C3)cc2n(C)c1=O (stereo not shown) [Example 147]
1 (yes)

Entry CNC(=O)c1cc2c(cc1C#N)N(c1cc(OC)cc3c1cc(C)c(=O)n3C)CCN2C [Example 69] please
0 (no)

Queued: COc1cc(N2CCN(C)c3cc(N4CCCC(NC(C)=O)C4)ncc32)c2cc(C)c(=O)n(C)c2c1 (stereo not shown) [Example 122]
0 (no)

Repeat with CN1CCN(c2cccc3[nH]c(=O)ccc23)c2cc(C#N)c(-c3cnn(C)c3)cc21 [Example 52]
0 (no)

Please do the same for CC(=O)NS(=O)(=O)c1ccc2c(c1)N(c1cccc3c1cc(C)c(=O)n3C)CCN2C [Example 103] as well.
0 (no)

Another molecule to check: Cc1cc2c(N3CCCc4cc(-c5cnn(C)c5)c(C(F)F)cc43)nc(-n3ccnc3)cc2n(C)c1=O [Example 204]
0 (no)

Follow-up item: Cc1cc2c(N3CCN(CC(=O)O)c4cc(-c5cnn(C)c5)ncc43)cc(N3CCOCC3)cc2n(C)c1=O [Example 164]
0 (no)

Another molecule to check: COc1cc(N2CCN(C)c3cc(-c4cnn(C)c4)c(C#N)cc32)c2cc(C)c(=O)[nH]c2c1 [Example 7]
1 (yes)

Entry Cc1cc2c(N3CCNc4cc(-c5cnn(C)c5)ncc43)cc(N3CCOCC3)cc2n(C)c1=O [Example 161] please
0 (no)

----------
Molecular target: recombinant CREBBP bromodomain (Homo sapiens)
Construct: recombinant CREBBP bromodomain obtained from BPS Bioscience, USA
Sequence (Q92793 1085-1192 limits assumed): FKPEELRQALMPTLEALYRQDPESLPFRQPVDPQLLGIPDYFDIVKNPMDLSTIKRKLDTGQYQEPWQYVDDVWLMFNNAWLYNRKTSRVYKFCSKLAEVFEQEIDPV
Test: CBP TR-FRET displacement assay
Conditions: dose-response, read-out: IC50 (group A, B, C)
pIC50: −log10 of the molar value.
measure: pIC50

State the recorded pIC50 for this entry: `CNC(=O)c1ccc(-c2ccc3c(c2)CCCN3c2cc(OC)cc3c2cc(C)c(=O)n3C)cn1`
7.00 to 7.29

# iterate: Cc1cc2c(N3CCCc4cc(N5CC(C)NC(C)C5)c(C(F)F)cc43)nc(C3CCOCC3)cc2n(C)c1=O (stereo not shown)
> 7.30

Cool, now `CNC(=O)c1ccc(-c2cc3c(cc2C#N)N(c2cc(OC)cc4c2cc(C)c(=O)n4C)CCC3)cn1`
> 7.30

Again, but for `Cc1cc2c(N3CCN(C)c4cc(-c5cnn(C)c5)ncc43)cc(C(C)C)cc2n(C)c1=O`
7.00 to 7.29

// same read-out, input: `CCOC(=O)CN1CCN(c2cc(OC)cc3c2cc(C)c(=O)n3C)c2cc(C#N)c(-c3cnn(C)c3)cc21`
> 7.30

Further, for `Cc1cc2c(N3CCN(C)c4cc(-c5cnn(C)c5)c(C#N)cc43)cccc2n(C)c1=O` ?
> 7.30

What do you have for `COc1cc(N2CCN(C)c3ccc(C(C)=O)cc32)c2cc(C)c(=O)n(C)c2c1` ?
7.00 to 7.29
